- Test system: Mycobacterium avium
- Assay Method Text: Antimycobacterial activity against Mycobacterium avium CNCTC My 330/88 after 14 days by micromethod
- Format: functional
- Measurement Conditions: CNCTC My 330/88, 336 h
Known MIC of a selection of compounds

Past entries and their recorded results:
O=[N+]([O-])c1ccc(CSc2nc3ccccc3o2)cc1 | > 32 µM
O=[N+]([O-])c1ccc(CSc2nc3ccccc3o2)c([N+](=O)[O-])c1 | > 16 µM
O=[N+]([O-])c1ccccc1CSc1nc2ccccc2o1 | > 125 µM

Input: Requested read-out: MIC. Entry: NNC(=O)c1ccncc1
Output: > 250 µM

---

- System: Mycobacterium kansasii
- Assay Method Text: Antimycobacterial activity against Mycobacterium kansasii 6509/96 after 7 days by micromethod
- Type: functional
- Measurement Conditions: 6509/96, 168 h
Measure: log10 of MIC (log10 of the value in µM)
Please note: log10 values; quantity MIC; unit µM.

// worked examples, log10 of MIC included
O=[N+]([O-])c1ccccc1CSc1nc2ccccc2o1 | 1.79
O=[N+]([O-])c1cccc(CSc2nc3ccccc3o2)c1 | 1.51
NC(=S)c1cccc(CSc2nc3ccccc3o2)c1 | 0.90
Cc1cccc(CSc2nc3ccccc3o2)c1 | 2.10

Input: What measured log10 of MIC goes with Sc1nc2ccccc2o1 ?
Output: 2.40

Input: Again, but for Fc1ccc(CSc2nc3ccccc3o2)cc1
Output: 1.79

Input: Now consider Clc1ccc(CSc2nc3ccccc3o2)cc1Cl .
Output: 1.79

---

- Test system: Mycobacterium avium
- Assay Method Text: Antimycobacterial activity against Mycobacterium avium CNCTC My 330/88 after 14 days by micromethod
- Type: functional
- Measurement Conditions: CNCTC My 330/88, 336 h
Attribute: MIC

FC(F)(F)c1cc(CSc2nc3ccccc3o2)cc(C(F)(F)F)c1 | > 125 µM
O=[N+]([O-])c1cccc(CSc2nc3ccccc3o2)c1 | > 32 µM

Input: Query the reported MIC for Mycobacterium avium; item: O=[N+]([O-])c1cc(CSc2nc3ccccc3o2)cc([N+](=O)[O-])c1
Output: > 16 µM

---

Measured MIC accompanies every entry in the list below.
- Tested on: Mycobacterium kansasii
- Assay Method Text: Antimycobacterial activity against Mycobacterium kansasii 6509/96 after 7 days by micromethod
- Assay type: functional
- Measurement Conditions: 6509/96, 168 h
Answer in µM, number only, no unit symbol.

Clc1ccc(CSc2nc3ccccc3o2)cc1 | 32
Fc1cccc(CSc2nc3ccccc3o2)c1 | 32
Clc1cccc(CSc2nc3ccccc3o2)c1 | 32

Input: Form field: reported MIC of O=[N+]([O-])c1cc(CSc2nc3ccccc3o2)cc([N+](=O)[O-])c1
Output: 4

Reference source for all entries: ChEMBL document CHEMBL1137696
